Reported Hydrolysis product G4P by item:
target: UniProt:P04746; assay: Binding mode (distribution of hydrolysis products) by HPLC; assay type: biochemical; details: share of product G4P
Sequence (P04746 16-511): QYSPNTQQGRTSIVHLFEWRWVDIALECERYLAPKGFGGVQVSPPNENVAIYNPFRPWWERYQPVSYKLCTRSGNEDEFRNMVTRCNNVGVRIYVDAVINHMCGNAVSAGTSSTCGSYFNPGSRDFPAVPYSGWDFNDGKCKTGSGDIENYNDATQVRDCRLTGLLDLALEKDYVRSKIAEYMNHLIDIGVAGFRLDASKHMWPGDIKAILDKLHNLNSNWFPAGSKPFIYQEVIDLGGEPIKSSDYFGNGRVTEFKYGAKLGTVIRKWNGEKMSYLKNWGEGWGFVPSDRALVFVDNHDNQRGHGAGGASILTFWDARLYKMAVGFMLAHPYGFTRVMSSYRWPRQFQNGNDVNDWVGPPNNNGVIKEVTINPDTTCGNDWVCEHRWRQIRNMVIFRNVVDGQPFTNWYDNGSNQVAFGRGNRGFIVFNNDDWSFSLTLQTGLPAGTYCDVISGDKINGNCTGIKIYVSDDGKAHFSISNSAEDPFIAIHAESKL
// return numeric value only (unit: %, not printed)

Guide cases for Hydrolysis product G4P, answers given:
O=[N+]([O-])c1ccc(O[C@H]2O[C@H](CO)[C@@H](O[C@H]3O[C@H](CO)[C@@H](O[C@H]4O[C@H](CO)[C@@H](O[C@H]5O[C@H](CO)[C@@H](O[C@H]6O[C@H](CO)[C@@H](O[C@H]7O[C@H](COCc8ccccc8)[C@@H](O)[C@H](O)[C@H]7O)[C@H](O)[C@H]6O)[C@H](O)[C@H]5O)[C@H](O)[C@H]4O)[C@H](O)[C@H]3O)[C@H](O)[C@H]2O)cc1 :: 0
O=[N+]([O-])c1ccc(O[C@H]2O[C@H](CO)[C@@H](O[C@H]3O[C@H](CO)[C@@H](O[C@H]4O[C@H](CO)[C@@H](O[C@H]5O[C@H](CO)[C@@H](O[C@H]6O[C@H](CO)[C@@H](O[C@H]7O[C@@H]8COC(c9ccccc9)O[C@H]8[C@H](O)[C@H]7O)[C@H](O)[C@H]6O)[C@H](O)[C@H]5O)[C@H](O)[C@H]4O)[C@H](O)[C@H]3O)[C@H](O)[C@H]2O)cc1 (some centres unmarked) :: 0
O=[N+]([O-])c1ccc(O[C@H]2O[C@H](CO)[C@@H](O[C@H]3O[C@H](CO)[C@@H](O[C@H]4O[C@H](CO)[C@@H](O[C@H]5O[C@H](CO)[C@@H](O[C@H]6O[C@H](CO)[C@@H](O[C@H]7O[C@H](CO)[C@@H](O)[C@H](O)[C@H]7O)[C@H](O)[C@H]6O)[C@H](O)[C@H]5O)[C@H](O)[C@H]4O)[C@H](O)[C@H]3O)[C@H](O)[C@H]2O)cc1 [Substrate G6P] :: 0
O=[N+]([O-])c1ccc(O[C@H]2O[C@H](CO)[C@@H](O[C@H]3O[C@H](CO)[C@@H](O[C@H]4O[C@H](CO)[C@@H](O[C@H]5O[C@H](CO)[C@@H](O[C@H]6O[C@H](CO)[C@@H](O[C@H]7O[C@H](CO)[C@@H](O[C@H]8O[C@H](CO)[C@@H](O)[C@H](O)[C@H]8O)[C@H](O)[C@H]7O)[C@H](O)[C@H]6O)[C@H](O)[C@H]5O)[C@H](O)[C@H]4O)[C@H](O)[C@H]3O)[C@H](O)[C@H]2O)cc1 [Substrate G7P] :: 55

We now examine a further molecule.
Form: molecule = O=[N+]([O-])c1ccc(O[C@H]2O[C@H](CO)[C@@H](O[C@H]3O[C@H](CO)[C@@H](O[C@H]4O[C@H](CO)[C@@H](O[C@H]5O[C@H](CO)[C@@H](O[C@H]6O[C@H](CO)[C@@H](O[C@H]7O[C@H](CO)[C@@H](O[C@H]8O[C@@H]9COC(c%10ccccc%10)O[C@H]9[C@H](O)[C@H]8O)[C@H](O)[C@H]7O)[C@H](O)[C@H]6O)[C@H](O)[C@H]5O)[C@H](O)[C@H]4O)[C@H](O)[C@H]3O)[C@H](O)[C@H]2O)cc1 (some centres unmarked) ; Hydrolysis product G4P = 13

From: patent EP0252525B1
